FYI, the data here is from patent EP4520771A2.

tgt: human epidermal growth factor receptor 2 (HER2) (human, UniProt P04626 23-1255)
experimentalDetails: cell-based or functional assay
Please respond with reported % cells killed (maximal), A431 cells, anti-kappa-ETA'-conjugated antibody for every item in the list.
Express it in %; write the number only.

Prompt line: Read the entry HER2 antibody 098 (antibody, V domains shown, also called PC1014-098; TH1014-098) VH: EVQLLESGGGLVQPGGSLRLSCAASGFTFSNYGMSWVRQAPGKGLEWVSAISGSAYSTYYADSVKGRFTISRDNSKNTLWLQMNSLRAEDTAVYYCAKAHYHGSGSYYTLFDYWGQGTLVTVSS VL: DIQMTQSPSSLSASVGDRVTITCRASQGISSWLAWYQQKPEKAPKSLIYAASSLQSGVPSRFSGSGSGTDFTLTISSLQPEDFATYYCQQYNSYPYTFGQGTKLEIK and write its reported % cells killed (maximal), A431 cells, anti-kappa-ETA'-conjugated antibody.
Response line: 87.2

Prompt line: Read the entry HER2 antibody 084 (antibody, V domains shown) VH: QVQLVQSGAEVKKPGSSVKVSCKASGGTFRTYAINWVRQAPGQGLEWMGRINTVLGIVNHAQKFQGRVTITADKSTNTAYMELNSLRSEDTAVYYCAREKGVDYYYGIEVWGQGTTVTVSS VL: DIQMTQSPSSVSASVGDRVTITCRASQGISSWLAWYQHKPGKAPKLLIYVASTLQSGVPSRFSGSGSGTDFTLTISSLQPEDFATYYCQQANSFPLTFGGGTKVEIK and write its reported % cells killed (maximal), A431 cells, anti-kappa-ETA'-conjugated antibody.
Response line: 50.5

Prompt line: Read the entry HER2 antibody 025 (antibody, V domains shown, also called HuMab-025; PC1014-025) VH: QVQLQQWGAGLLKPSETLSLTCAVYGGSFSDYYWNWIRQPPGKGLEWIGEIHHSGSTNYNPSLKSRVTISVDTSKNQFSLKLSSVTAADTAVYYCARGYYDSGVYYFDYWAQGTLVTVSS VL: DIQMTQSPSSLSASVGDRVTITCRASQGISRWLAWYQQKPEKAPKSLIYAASSLRSGVPSRFSGSGSGTDFTLTISSLQPEDFATYYCQQYNSYPITFGQGTRLEIK and write its reported % cells killed (maximal), A431 cells, anti-kappa-ETA'-conjugated antibody.
Response line: 86.7
